Reported ELISA OD 405 nm, Denatured Lysate by item:
- tgt: SARS-HCoV antigen(s) of unknown identity (purified whole virus, infected Vero cell lysate or infected Vero cells)
- experimental-details: ELISA, virus heated 100 C 10 min, coated at 32 ng/well
assay-endpoint: ELISA OD 405 nm, Denatured Lysate (OD 405 nm)

>>> measurement("F26G9 (antibody, V domains shown) VH: VQLLESGTVLARPGASVKMSCKASGYSFTSYWMHWVKQRPGQGLEWIGAIYPGNSDTSYNQKFKGKAKLTAVTSASTAYMELSSLTNEDSAVYYCTRSVYYGYGYFDVWGAGTTVTVSS VL: DILMTQSHKCMSTSVGDRVSITCKASQDVSTAVVWYQQKPGQFPKLLIYWASTRHTGVPDRFTGSGSGTDYTLTISSVQAEDLALYYCQQHYTTPYTFGGGTKLEIKR")
0.278
>>> measurement("F26G7 (antibody, V domains shown) VH: VELLESGTVLARPGASVKMSCEASGYTFTTYWMHWIKQRPGQGLEWIGAIYPGNSDTTYNQKFKGKAKLTAVTSTSTAYMELSSLTNEDSAVYYCTREGIPQLLRTMDYWGQGTSVTVSS VL: ELVMTQSPSSLSASLGERVSLTCRASQEISGYLSWLQQKPDGTIKRLIYAASTLDSGVPKRFSGSRSGSDYSLTISSLESEDFADYYCLQYISYPWTFGGGTKLEIKR")
0.382
>>> measurement("F26G3 (antibody, V domains shown) VH: EVRLQQSGPELVKPGASVKISCKTSGYTFTEYTMHWVKQSHGKNLEWIGGINPNNGGTTYNQKFKGKATLTVDKSSNTAYMELRSLTSEDSAVYYCSRGDYGTSYGYFDVWGAGTTVTVSS VL: DILMTQSPTSFAVSLGQRATISCRTSQSVSTSSYSYMHWYQQKPGQPPKLLIKYASNLESGVPARFSGSGSGSDFTLNIHPVEEGDTATYYCQHSWEIPCAFGGGTKLEIKR")
0.276
>>> measurement("F26G10 (antibody, V domains shown) VH: EVQLEESGTVLARPGASVKMSCKASGYSFTSYWMHWVKQRPGQGLDWIGAIYPENSDTSYNQKFKGKAKLTAVTSASTAYMEHSSLTNEDSAVYYCTRSVYYGYGYFDVWGAGTTVTVSS VL: DILMTQSHKFMSTSVGDRVSITCKASQDVSTAVAWYQQKPGQSPKLLIYWASTRHTGVPDRFTGSGSGTDYTLTISSVQAEDLALYYCQQHYSTPYTFGGGTKLEIKR")
0.29
